# TARGET_OR_TEST_SYSTEM: full-length P. pyralis luciferase (Photinus pyralis, UniProt P08659, K549A/L550V/N119G/N50D/S548I)
# Sequence (P08659 whole entry N50D/N119G/S548I/K549A/L550V, looked up): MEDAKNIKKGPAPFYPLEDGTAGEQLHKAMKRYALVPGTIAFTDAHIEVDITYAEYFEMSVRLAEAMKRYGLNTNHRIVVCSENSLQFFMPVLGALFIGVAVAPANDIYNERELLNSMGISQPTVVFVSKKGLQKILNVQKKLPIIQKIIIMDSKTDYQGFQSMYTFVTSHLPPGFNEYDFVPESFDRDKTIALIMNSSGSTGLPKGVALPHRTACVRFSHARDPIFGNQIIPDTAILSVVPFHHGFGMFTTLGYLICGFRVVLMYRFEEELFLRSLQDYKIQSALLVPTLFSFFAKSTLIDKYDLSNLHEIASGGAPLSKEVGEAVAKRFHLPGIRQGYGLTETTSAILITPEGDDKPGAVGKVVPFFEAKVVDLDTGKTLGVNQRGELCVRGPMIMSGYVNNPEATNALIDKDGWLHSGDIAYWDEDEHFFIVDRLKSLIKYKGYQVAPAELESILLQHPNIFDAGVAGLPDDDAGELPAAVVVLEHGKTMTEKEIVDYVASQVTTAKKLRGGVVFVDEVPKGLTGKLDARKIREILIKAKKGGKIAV
# Type: cell-based
Answer each item with its documented Luciferase Assay Z-score.
The answer should be a number; do not append a unit.

Measured Luciferase Assay Z-score of `Nc1nc(Cl)nc2c1ncn2[C@@H]1O[C@H](CO)[C@@H](O)[C@@H]1F` : 0.11

Measured Luciferase Assay Z-score of `COc1nc(N)nc2c1ncn2[C@@H]1O[C@H](CO)[C@@H](O)[C@@H]1O` : -0.78

Measured Luciferase Assay Z-score of `Oc1ncc(N(CCCl)CCCl)c(O)n1` : -0.26

Measured Luciferase Assay Z-score of C[C@]12CC[C@@H]3c4ccc(OC(=O)N(CCCl)CCCl)cc4CC[C@H]3[C@@H]1CC[C@@H]2OP(=O)(O)O [Estramustine phosphate sodium] : -1.75

Measured Luciferase Assay Z-score of `c1cc(CN2CCCNCCNCCCNCC2)ccc1CN1CCCNCCNCCCNCC1` : -0.33

Measured Luciferase Assay Z-score of `CCN(CC)CCNC(=O)c1c(C)[nH]c(/C=C2\C(=O)Nc3ccc(F)cc32)c1C` : -1.18

Measured Luciferase Assay Z-score of C[S+]([O-])c1ccc(-c2nc(-c3ccncc3)c(-c3ccc(F)cc3)[nH]2)cc1 (stereo not drawn) [SB 203580, reference compound] : -2.52

Measured Luciferase Assay Z-score of CNC(=O)c1ccc(N2C(=S)N(c3ccc(C#N)c(C(F)(F)F)c3)C(=O)C2(C)C)cc1F [Enzalutamide] : -2.55

Measured Luciferase Assay Z-score of CCCS(=O)(=O)Nc1ccc(F)c(C(=O)c2c[nH]c3ncc(Cl)cc23)c1F [PLX4720, reference compound] : -2.64

====

Measured Toxicity Assay Z-score on Clone V cells follows.
The answer should be a number; do not append a unit.

Field Toxicity Assay Z-score (system: Clone V cells) for entry Cc1cc(Nc2ncc3cc(-c4c(Cl)cccc4Cl)c(=O)n(C)c3n2)ccc1F [PD 180970] = 0.32

Field Toxicity Assay Z-score (system: Clone V cells) for entry Cl.Cn1c(CCCC(=O)O)nc2cc(N(CCCl)CCCl)ccc21 [Bendamustine hydrochloride] = -1.73

Field Toxicity Assay Z-score (system: Clone V cells) for entry O=C(Nc1cccc(Nc2ncc(Br)c(NCCc3cnc[nH]3)n2)c1)N1CCCC1 [BX 912, reference compound] = 0.87

Field Toxicity Assay Z-score (system: Clone V cells) for entry CNC(=O)c1ccccc1Sc1ccc2c(/C=C/c3ccccn3)n[nH]c2c1 [Axitinib] = -1.17

Field Toxicity Assay Z-score (system: Clone V cells) for entry CCOC(=O)C1=C(N)Oc2ccc(Br)cc2C1C(C#N)C(=O)OCC (centres unmarked) [HA14-1] = 0.37

Field Toxicity Assay Z-score (system: Clone V cells) for entry O=[As]O[As]=O (centres unmarked) [Arsenic trioxide] = -2.18

Field Toxicity Assay Z-score (system: Clone V cells) for entry CC(C)C[C@H](NC(=O)[C@H](Cc1ccccc1)NC(=O)c1cnccn1)B(O)O [Bortezomib] = -0.94

Field Toxicity Assay Z-score (system: Clone V cells) for entry CO[C@H]1/C=C\C=C(/C)C(=O)NC2=CC(=O)C(NCCN(C)C)=C(C[C@@H](C)C[C@H](OC)[C@H](O)[C@@H](C)/C=C(\C)[C@@H]1OC(N)=O)C2=O [Compound 17-DMAG] = -6.39

====

Answer each item with its documented Toxicity Assay % Fluor.
# Test system: Clone V cells
# EXPERIMENTAL_CONDITIONS: human, 16 h, 30 µM
The reply should contain only the number, in %.

Field Toxicity Assay % Fluor (system: Clone V cells) for entry `COC(=O)c1ccc2c(c1)NC(=O)/C2=C(\Nc1ccc(N(C)C(=O)CN2CCN(C)CC2)cc1)c1ccccc1` = 89.46

Field Toxicity Assay % Fluor (system: Clone V cells) for entry C[S+]([O-])c1ccc(-c2nc(-c3ccncc3)c(-c3ccc(F)cc3)[nH]2)cc1 (centres unmarked) [SB 203580, reference compound] = 95.56

Field Toxicity Assay % Fluor (system: Clone V cells) for entry `CO[C@@H]1[C@H](N(C)C(=O)c2ccccc2)C[C@H]2O[C@]1(C)n1c3ccccc3c3c4c(c5c6ccccc6n2c5c31)C(=O)NC4` = 83.94

Field Toxicity Assay % Fluor (system: Clone V cells) for entry `CN(C)C(=N)N=C(N)N` = 91.06

Field Toxicity Assay % Fluor (system: Clone V cells) for entry O=c1[nH]c(=O)n([C@H]2C[C@H](O)[C@@H](CO)O2)cc1F [Floxuridine, reference compound] = 90.13

Field Toxicity Assay % Fluor (system: Clone V cells) for entry `COc1cc2ncnc(Nc3ccc(F)c(Cl)c3)c2cc1OCCCN1CCOCC1` = 87.95

Field Toxicity Assay % Fluor (system: Clone V cells) for entry `CN(C)S(=O)(=O)c1ccc2c(c1)/C(=C/c1cc3c([nH]1)CCCC3)C(=O)N2` = 105.95

Field Toxicity Assay % Fluor (system: Clone V cells) for entry `Cc1ccc(-c2cc(C(F)(F)F)nn2-c2ccc(S(N)(=O)=O)cc2)cc1` = 88.16

====

# TARGET_OR_TEST_SYSTEM: FGF14:Nav1.6 C-tail complex (Homo sapiens, UniProt Q92915+Q9UQD0)
# Construct: polymerase chain reaction (PCR) amplification of the FGF14 open reading frame (nt 1–855); C-terminal fragment of Nav1.6 (amino acids 1763–1976) fused with CD4ΔC-tail (amino acids 1–395); expressed in transfected cells
# Sequence (Q92915 1-252 isoform Q92915-2): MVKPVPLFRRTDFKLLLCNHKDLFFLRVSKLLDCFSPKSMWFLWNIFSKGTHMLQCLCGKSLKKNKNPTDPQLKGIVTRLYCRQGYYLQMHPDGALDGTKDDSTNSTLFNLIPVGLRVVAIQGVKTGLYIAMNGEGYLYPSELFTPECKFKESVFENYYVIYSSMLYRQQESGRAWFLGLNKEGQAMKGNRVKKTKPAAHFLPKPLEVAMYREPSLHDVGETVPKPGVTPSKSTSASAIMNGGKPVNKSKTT
# Sequence (Q9UQD0 1763-1976 limits assumed): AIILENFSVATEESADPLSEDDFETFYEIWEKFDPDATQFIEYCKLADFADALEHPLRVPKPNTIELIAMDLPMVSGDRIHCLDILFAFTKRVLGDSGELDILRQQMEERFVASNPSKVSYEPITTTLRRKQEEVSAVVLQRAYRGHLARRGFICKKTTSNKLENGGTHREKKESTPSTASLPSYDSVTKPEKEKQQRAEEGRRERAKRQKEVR
# ASSAY_OVERVIEW: Split-luciferase complementation assay (LCA) in Clone V double stable HEK293 cells
# Assay type: cell-based
Counter-ions that a name gives are not always drawn.
QUANTITY_KIND: Split Luciferase Assay Z-score Set 1

Measured Split Luciferase Assay Z-score Set 1 of CCCS(=O)(=O)Nc1ccc(F)c(C(=O)c2c[nH]c3ncc(Cl)cc23)c1F [PLX4720, reference compound] : -5.60

Measured Split Luciferase Assay Z-score Set 1 of CC/C(=C(\c1ccccc1)c1ccc(OCCN(C)C)cc1)c1ccccc1 [Tamoxifen citrate] : -7.70

Measured Split Luciferase Assay Z-score Set 1 of `CC1=C2C[C@H]3[C@@H](CC=C4C[C@@H](O)CC[C@@]43C)[C@@H]2CC[C@]12O[C@@H]1C[C@H](C)CN[C@H]1[C@H]2C` : 3.37

Measured Split Luciferase Assay Z-score Set 1 of `COc1cc2ncnc(Nc3cccc(Br)c3)c2cc1OC` : 3.54

====

# TARGET_OR_TEST_SYSTEM: FGF14:Nav1.6 C-tail complex (Homo sapiens, UniProt Q92915+Q9UQD0)
# Construct: polymerase chain reaction (PCR) amplification of the FGF14 open reading frame (nt 1–855); C-terminal fragment of Nav1.6 (amino acids 1763–1976) fused with CD4ΔC-tail (amino acids 1–395); expressed in transfected cells
# ASSAY_OVERVIEW: Split-luciferase complementation assay (LCA) in Clone V double stable HEK293 cells
# Type: cell-based
# EXPERIMENTAL_CONDITIONS: CC_NCI screening, biological replicate Set 1; normalized to on-plate 0.3% DMSO controls (n=16 per plate)
Structures can show the parent of a compound that is named as a salt.
Answer each item with its documented Split Luciferase Assay % Lum Set 1.
The reply should contain only the number, in %.

Measured Split Luciferase Assay % Lum Set 1 of `Nc1ncn([C@@H]2O[C@H](CO)[C@@H](O)[C@H]2O)c(=O)n1` : 95.99

Measured Split Luciferase Assay % Lum Set 1 of NCC(=O)CCC(=O)O [Aminolevulinic acid hydrochloride] : 99.25

Measured Split Luciferase Assay % Lum Set 1 of `Nc1ccccc1NC(=O)c1ccc(CNc2nccc(-c3cccnc3)n2)cc1` : 77.51

Measured Split Luciferase Assay % Lum Set 1 of `Cc1nc2c(O)cccc2c(=O)[nH]1` : 95.99

Measured Split Luciferase Assay % Lum Set 1 of `CN(C)c1nc(N(C)C)nc(N(C)C)n1` : 92.73

Measured Split Luciferase Assay % Lum Set 1 of Nc1ncn([C@H]2C[C@H](O)[C@@H](CO)O2)c(=O)n1 [Decitabine, reference compound] : 185.13

Measured Split Luciferase Assay % Lum Set 1 of `Oc1c2ccccc2c2c3c(cccc13)N=N2` : 112.30

Measured Split Luciferase Assay % Lum Set 1 of `COc1ccc2c(c1OC)N=C(NC(=O)c1cccnc1)N1CCN=C21` : 98.17

Measured Split Luciferase Assay % Lum Set 1 of `CC(C)Cn1cnc2c(N)nc3ccccc3c21` : 116.65

Measured Split Luciferase Assay % Lum Set 1 of `O=C(NCCCNc1nc(Nc2cccc(NC(=O)N3CCCC3)c2)ncc1I)c1cccs1` : 47.07

Measured Split Luciferase Assay % Lum Set 1 of `Nc1ccccc1NC(=O)c1ccc(CNC(=O)OCc2cccnc2)cc1` : 63.38

Measured Split Luciferase Assay % Lum Set 1 of `CCCCCOC(=O)Nc1nc(=O)n([C@@H]2O[C@H](C)[C@@H](O)[C@H]2O)cc1F` : 124.26

Measured Split Luciferase Assay % Lum Set 1 of CN(C)C[C@@H]1CCn2cc(c3ccccc32)C2=C(C(=O)NC2=O)c2cn(c3ccccc23)CCO1 [LY 333531, reference compound] : 41.64

Measured Split Luciferase Assay % Lum Set 1 of Clc1ccc(C(c2ccccc2Cl)C(Cl)Cl)cc1 (stereo not shown) : 24.24

Measured Split Luciferase Assay % Lum Set 1 of `Cc1[nH]c2ccccc2c1CCNCc1ccc(/C=C/C(=O)NO)cc1` : 75.34

Measured Split Luciferase Assay % Lum Set 1 of O=P1(NCCCl)OCCCN1CCCl (stereo not shown) [Ifosfamide] : 115.56

Measured Split Luciferase Assay % Lum Set 1 of `COc1cc(F)c(F)c(Nc2ccc(I)cc2F)c1NS(=O)(=O)C1(C[C@H](O)CO)CC1` : 12.28

Measured Split Luciferase Assay % Lum Set 1 of Cl.N[C@@H](Cc1ccc(N(CCCl)CCCl)cc1)C(=O)O [Melphalan hydrochloride] : 79.68

Measured Split Luciferase Assay % Lum Set 1 of `CCCCCCCCc1ccc(CCC(N)(CO)CO)cc1` : 99.25

Measured Split Luciferase Assay % Lum Set 1 of O=C(O)CCCc1ccc(N(CCCl)CCCl)cc1 [Chlorambucil, reference compound] : 262.32

Measured Split Luciferase Assay % Lum Set 1 of `CS(=O)(=O)OCCCCOS(C)(=O)=O` : 93.82

Measured Split Luciferase Assay % Lum Set 1 of `C[C@@H](CN1CC(=O)NC(=O)C1)N1CC(=O)NC(=O)C1` : 115.56

Measured Split Luciferase Assay % Lum Set 1 of `CO[C@@]12[C@H](COC(N)=O)C3=C(C(=O)C(C)=C(N)C3=O)N1C[C@@H]1N[C@@H]12` : 109.04

Measured Split Luciferase Assay % Lum Set 1 of `O=c1cc(N2CCOCC2)oc2c(-c3ccccc3)cccc12` : 88.38

Measured Split Luciferase Assay % Lum Set 1 of CNNCc1ccc(C(=O)NC(C)C)cc1 [Procarbazine hydrochloride] : 118.82

Measured Split Luciferase Assay % Lum Set 1 of `Cc1c[nH]c(-c2cnc(NCCNc3ccc(C#N)cn3)nc2-c2ccc(Cl)cc2Cl)n1` : 38.37

Measured Split Luciferase Assay % Lum Set 1 of NC(=O)NO [Hydroxyurea] : 89.47

Measured Split Luciferase Assay % Lum Set 1 of CN(Cc1cnc2nc(N)nc(N)c2n1)c1ccc(C(=O)N[C@@H](CCC(=O)O)C(=O)O)cc1 [Methotrexate] : 109.04

Measured Split Luciferase Assay % Lum Set 1 of `Cc1cc(Nc2cc(N3CCN(C)CC3)nc(Sc3ccc(NC(=O)C4CC4)cc3)n2)[nH]n1` : 80.77

Measured Split Luciferase Assay % Lum Set 1 of Cc1ccc([N+](=O)[O-])cc1S(=O)(=O)N(C)/N=C/c1cnc2ccc(Br)cn12 [PIK 75, reference compound] : 23.16

Measured Split Luciferase Assay % Lum Set 1 of `O=C1NC(=O)c2c1c1c3ccccc3n3c1c1c2c2ccccc2n1C1CCC3O1` : 80.77

Measured Split Luciferase Assay % Lum Set 1 of Nc1ccn([C@@H]2O[C@H](CO)[C@@H](O)[C@@H]2O)c(=O)n1 [Cytarabine hydrochloride] : 93.82

Measured Split Luciferase Assay % Lum Set 1 of `NC(=O)c1ccc(N(C(N)=O)c2c(F)cccc2F)nc1-c1ccc(F)cc1F` : 116.65

Measured Split Luciferase Assay % Lum Set 1 of `Sc1ncnc2nc[nH]c12` : 118.82

Measured Split Luciferase Assay % Lum Set 1 of `Cn1cc(/C=C2\C(=O)Nc3cccnc32)c2ccccc21` : 93.82

Measured Split Luciferase Assay % Lum Set 1 of `CS(=O)(=O)c1ccc(C2=C(c3ccccc3)C(=O)OC2)cc1` : 122.08

Measured Split Luciferase Assay % Lum Set 1 of Nc1ncnc2c1c(-c1cnc3[nH]ccc3c1)nn2C1CCCC1 [PP121, reference compound] : 39.46
